In this section we review reported log10 of TGI values for a set of molecules.
System: MDA-MB-231 breast
Assay: NCI tumour cell line growth inhibition, 48 h
Would you kindly interpret these values as log10 of TGI expressed in µM?

Illustrative cases are given below, each with its answer.
1) O=C(CNc1ccc2c(c1)C(=O)c1ccccc1C2=O)Nc1ccc2c(c1)C(=O)c1ccccc1C2=O	0.67
2) O=C(CNc1cccc([N+](=O)[O-])c1)Nn1c(-c2ccccc2)nc2ccccc2c1=O	0.46
3) Cc1ccc(-n2c3c(c4c(CN(C)C)c(O)ccc42)CCc2ccccc2C3=O)cc1	1.49
4) O=C1C=C(Sc2ccccc2)c2nccc3c2c1nc1ccccc13	1.58
5) C=CC(c1ccccc1)[C@@]1(OC(C)=O)C(=O)C(=O)OC1C1COC(C)(C)O1 (some centres undefined)	1.45

Problem: Fill in the blank: the reported log10 of TGI of "COc1cc(/C=C2\C[C@H]3[C@@H]4CC=C5C=C(N6CCCC6)CC[C@]5(C)[C@H]4CC[C@]3(C)C2=O)cc(OC)c1OC" is ____.
Solution: 0.82

Problem: Fill in the blank: the reported log10 of TGI of "Cc1cc(S(N)(=O)=O)c(S/C(CC(C)C)=N\Nc2ccc([N+](=O)[O-])cc2)cc1Cl" is ____.
Solution: 0.98

Problem: Fill in the blank: the reported log10 of TGI of "N#Cc1c(O)c(N=Nc2ccccc2F)c(=O)n2c1[nH]c1ccccc12" is ____.
Solution: 1.96

Problem: Fill in the blank: the reported log10 of TGI of "CC(C)[C@H](CO)Nc1nc(Nc2ccc(C(=O)NCCNS(=O)(=O)c3cccc4c(N(C)C)cccc34)c(Cl)c2)c2ncn(C(C)C)c2n1" is ____.
Solution: 0.96

Problem: Fill in the blank: the reported log10 of TGI of "COC(=O)c1c2c(c(C)[n+]([O-])c1C)C(=O)C=C(NCc1ccc(F)c(Cl)c1)C2=O" is ____.
Solution: 0.53
